Data provenance is paper PMC6272931.

target: Sortase A (SrtA) (Staphylococcus aureus)
Sequence (Q2FV99 60-206): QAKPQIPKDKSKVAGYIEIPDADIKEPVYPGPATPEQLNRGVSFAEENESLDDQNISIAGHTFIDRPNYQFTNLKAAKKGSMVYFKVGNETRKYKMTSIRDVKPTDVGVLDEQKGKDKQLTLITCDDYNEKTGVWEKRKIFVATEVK
attribute_measured: pIC50
# pIC50 is unitless: minus log10 of the molar concentration; print number only

Query (compound): COc1ccc(-c2cc(=O)c3c(O)cc(O)cc3o2)cc1 [acacetin] ; field requested: pIC50
3.89
